PROTOCOL DETAILS: chemical genetic growth profiling, strain panel (AID 1159580);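 also: tested at 20 µM; growth read once vehicle control cultures reached saturation at 30 °C; 1 = growth at the plate median or of vehicle wells; lower values mean less growth of the strain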
RECORDED CONDITIONS: S. cerevisiae deletion strains, growth OD, locus YOR270C, strain vph1
About 2,000 (36%) of roughly 5,500 compounds were called active. Roughly 18% stayed inconclusive and do not appear here. Rule as the data show it: active = normalized growth mostly below about 0.91 (no sharp cut-off); inconclusive = no clear call, values can overlap the other calls; inactive = mostly above about 0.92. This is one part of the list.
Labels: 1 (active), -1 (inactive)

COMPOUND | LABEL
COC1C(O)C(O)C(O)[C@@H](O)C1O (stereo partly drawn) | -1
COc1c(O)cc2oc3cc(O)c(CC=C(C)C)c(O)c3c(=O)c2c1CC=C(C)C | -1
C/C=C(/C(=C/C)c1ccc(O)cc1)c1ccc(O)cc1 | -1
S=C=NCc1ccccc1 | 1
CN1CCc2cc3c(cc2C1O)OCO3 (stereo not drawn) | -1
Cc1ccc(O)cc1 | -1
C[C@@H]1O[C@@H](O[C@H]2[C@@H](Oc3cc(O)c4c(c3)O[C@H](c3ccc(O)cc3)CC4=O)O[C@H](CO)[C@@H](O)[C@@H]2O)[C@H](O)[C@H](O)[C@H]1O | -1
Cn1cc[nH]c1=S | -1
COc1cc(O)c2c(=O)cc(C)oc2c1CC=C(C)C | -1
CC(C)[N+](C)(CCOC(=O)C1c2ccccc2Oc2ccccc21)C(C)C | -1
OCc1ccccc1O[C@@H]1O[C@H](CO)[C@@H](O)[C@H](O)[C@H]1O | -1
O=c1ccc2ccccc2o1 | -1
Cc1cc(=O)c2c(O)c(C)c(O)cc2o1 | -1
